src = ChEMBL document CHEMBL4622968

- Protocol Description: Acute toxicity in Kunming mouse assessed as mortality at 1778 mg/kg, ig observed for 14 days relative to control
- Format: organism-based
- Experimental Setup: in vivo, po, read-out: Activity
Outcome Measure: mortality at 336 h (%)
Write the answer as a number in %, unit excluded.

Lab book: mortality at 336 h of CS(=O)(=O)c1ccc(C(=O)Nc2ccc(Cl)c(-c3ccccn3)c2)c(Cl)c1 noted as 50

###

- Protocol Description: Acute toxicity in Kunming mouse assessed as mortality at 3965 mg/kg, ig observed for 14 days relative to control
- Assay type: organism-based
- Experimental Setup: in vivo, po, read-out: Activity
Outcome Measure: mortality at 336 h (%)
Write the answer as a number in %, unit excluded.

Lab book: mortality at 336 h of O=C(Nc1ccc(Cl)c(-c2nnc3c(Cl)cccn23)c1)c1ccc(Cl)nc1Cl noted as 50

###

- Protocol Description: Acute toxicity in Kunming mouse assessed as mortality at 5226 mg/kg, ig observed for 14 days relative to control
- Type: organism-based
- Experimental Setup: in vivo, po, read-out: Activity
Outcome Measure: mortality at 336 h (%)
Write the answer as a number in %, unit excluded.

Lab book: mortality at 336 h of O=C(Nc1ccc(Cl)c(-c2nnc3c(Cl)cccn23)c1)c1ccc(Cl)nc1Cl noted as 70

###

- Protocol Description: Acute toxicity in Kunming mouse assessed as mortality at 3008 mg/kg, ig observed for 14 days relative to control
- Format: organism-based
- Experimental Setup: in vivo, po, read-out: Activity
Outcome Measure: mortality at 336 h (%)
Write the answer as a number in %, unit excluded.

Lab book: mortality at 336 h of O=C(Nc1ccc(Cl)c(-c2nnc3c(Cl)cccn23)c1)c1ccc(Cl)nc1Cl noted as 10

###

- Protocol Description: Acute toxicity in Kunming mouse assessed as mortality at 3453 mg/kg, ig observed for 14 days relative to control
- Format: organism-based
- Experimental Setup: in vivo, po, read-out: Activity
Outcome Measure: mortality at 336 h (%)
Write the answer as a number in %, unit excluded.

Lab book: mortality at 336 h of O=C(Nc1ccc(Cl)c(-c2nnc3c(Cl)cccn23)c1)c1ccc(Cl)nc1Cl noted as 30

###

- Experimental Target: Protein smoothened (Homo sapiens, UniProt Q99835)
- Sequence (Q99835 whole entry): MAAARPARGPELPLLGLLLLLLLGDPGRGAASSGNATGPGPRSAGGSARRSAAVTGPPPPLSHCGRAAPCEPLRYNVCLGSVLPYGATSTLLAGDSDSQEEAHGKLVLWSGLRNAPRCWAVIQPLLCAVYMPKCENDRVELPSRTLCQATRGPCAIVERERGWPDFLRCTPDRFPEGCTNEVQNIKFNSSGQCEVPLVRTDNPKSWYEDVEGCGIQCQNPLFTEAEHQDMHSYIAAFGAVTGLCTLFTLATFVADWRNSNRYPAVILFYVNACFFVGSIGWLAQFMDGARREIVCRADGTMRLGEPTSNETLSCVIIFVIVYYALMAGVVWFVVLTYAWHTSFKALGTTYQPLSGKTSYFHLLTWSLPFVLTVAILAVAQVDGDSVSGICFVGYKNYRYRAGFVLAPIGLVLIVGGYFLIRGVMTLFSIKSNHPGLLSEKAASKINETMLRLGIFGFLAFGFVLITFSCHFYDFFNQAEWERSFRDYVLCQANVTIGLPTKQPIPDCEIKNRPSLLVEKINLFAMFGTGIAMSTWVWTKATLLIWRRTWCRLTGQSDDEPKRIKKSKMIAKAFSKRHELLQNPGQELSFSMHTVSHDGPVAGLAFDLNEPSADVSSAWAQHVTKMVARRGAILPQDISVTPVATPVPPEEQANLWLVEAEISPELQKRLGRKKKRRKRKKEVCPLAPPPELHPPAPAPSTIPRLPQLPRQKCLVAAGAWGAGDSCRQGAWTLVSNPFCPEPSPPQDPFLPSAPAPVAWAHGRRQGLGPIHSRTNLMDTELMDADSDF
- Protocol Description: Binding affinity to recombinant human Smo receptor assessed as dissociation rate constant by SPR analysis
Outcome Measure: log10 of Kdiss (log10 of the value in ×10⁻³ /s)
Scale: decimal log of Kdiss, Kdiss in ×10⁻³ /s.

Smiles Input: O=C(Nc1ccc(Cl)c(-c2nnc3c(Cl)cccn23)c1)c1ccc(C(F)(F)F)nc1Cl
Outcome Measure: log10 of Kdiss
Result Number: -2.56
--
Smiles Input: O=C(Nc1ccc(Cl)c(-c2nnc3c(Cl)cccn23)c1)c1ccc(Cl)nc1Cl
Outcome Measure: log10 of Kdiss
Result Number: -2.43
--
Smiles Input: O=C(Nc1ccc(Cl)c(-c2nnc3c(Cl)cccn23)c1)c1cccc(Cl)c1
Outcome Measure: log10 of Kdiss
Result Number: 0.09

Lab book: log10 of Kdiss of O=C(Nc1ccc(Cl)c(-c2nnc3c(Cl)cccn23)c1)c1ccc(C(F)(F)F)cc1F noted as 0.18

Lab book: log10 of Kdiss of CS(=O)(=O)c1ccc(C(=O)Nc2ccc(Cl)c(-c3ccccn3)c2)c(Cl)c1 noted as -1.76
